Molecular target: human SLC6A19 and TMEM27 (Homo sapiens)
Construct: expressed in transfected cells
Test: Radiolabelled (3H) leucine uptake in CHO cells with doxycycline-inducible expression of human SLC6A19 and TMEM27 (Example B-1)
Type: cell-based
Conditions: CHO cells with doxycycline-inducible expression of human SLC6A19 and TMEM27, read-out: SLC6A19_Radioligand Uptake Assay IC50
Description: The flasks were then incubated (humidified, 37° C. with 5% CO2) for 2 minutes. After incubation, 10 mL of pre-warmed cell culture media was added to each flask. The cell suspension was collected and centrifuged for 5 minutes at 200×g. […] The resuspended cells were counted using the Countess Cell Counting Chamber (Invitrogen) and the cell concentration of the suspension was readjusted to 1 million live cells/mL using pre-warmed cell culture media. […]
OBSERVED PROPERTY: IC50 (nM)

Worked set:
>>> numeric_result("Cc1cc(COc2cc(F)c3cc(CNC(=O)C4(C)CC4)[nH]c3c2)no1")
277
>>> numeric_result("Cc1cc(COc2cc3[nH]c(CNC(=O)C45COC(C4)C5)cc3cc2Cl)on1")
921
>>> numeric_result("COCCNC(=O)NCc1cc2cc(Cl)c(OCc3cscn3)cc2[nH]1")
1130
>>> numeric_result("CC1(C(=O)NCc2cc3cc(Cl)c(OCC4COCCO4)cc3[nH]2)CC1 (racemic)")
644
>>> numeric_result("C[C@@H]1CCN(C(=O)NCc2cc3cc(F)c(OCc4cscn4)cc3[nH]2)C1")
209
>>> numeric_result("O=C(NCc1cc2cc(Cl)c(OCc3cscn3)cc2[nH]1)C1CC(F)(F)C1")
397
>>> numeric_result("O=C(NCc1cc2cc(Cl)c(OCc3cscn3)cc2[nH]1)[C@@H]1CCCO1")
500
>>> numeric_result("Cc1cc(COc2cc3[nH]c(CNC(=O)[C@@H]4C[C@@H](F)CN4C)cc3cc2Cl)on1")
524
>>> numeric_result("Cc1cc(COc2cc3[nH]c(CNC(=O)N4CCCC4)cc3cc2F)on1")
1110

[1] COC(=O)NCc1cc2cc(Cl)c(OCc3cscn3)cc2[nH]1
[2] Cc1cc(COc2cc3[nH]c(CNC(=O)CN)cc3cc2Cl)on1
Hi! Which is lower in terms of IC50, the first one 1 or the second one 2 ? Which one? Tell me its label.
1
(1: 104 nM, 2: 3520 nM)

====

Target: human SLC6A19 and TMEM27 (Homo sapiens)
Construct: expressed in transfected cells
Sequence (Q695T7 1-634): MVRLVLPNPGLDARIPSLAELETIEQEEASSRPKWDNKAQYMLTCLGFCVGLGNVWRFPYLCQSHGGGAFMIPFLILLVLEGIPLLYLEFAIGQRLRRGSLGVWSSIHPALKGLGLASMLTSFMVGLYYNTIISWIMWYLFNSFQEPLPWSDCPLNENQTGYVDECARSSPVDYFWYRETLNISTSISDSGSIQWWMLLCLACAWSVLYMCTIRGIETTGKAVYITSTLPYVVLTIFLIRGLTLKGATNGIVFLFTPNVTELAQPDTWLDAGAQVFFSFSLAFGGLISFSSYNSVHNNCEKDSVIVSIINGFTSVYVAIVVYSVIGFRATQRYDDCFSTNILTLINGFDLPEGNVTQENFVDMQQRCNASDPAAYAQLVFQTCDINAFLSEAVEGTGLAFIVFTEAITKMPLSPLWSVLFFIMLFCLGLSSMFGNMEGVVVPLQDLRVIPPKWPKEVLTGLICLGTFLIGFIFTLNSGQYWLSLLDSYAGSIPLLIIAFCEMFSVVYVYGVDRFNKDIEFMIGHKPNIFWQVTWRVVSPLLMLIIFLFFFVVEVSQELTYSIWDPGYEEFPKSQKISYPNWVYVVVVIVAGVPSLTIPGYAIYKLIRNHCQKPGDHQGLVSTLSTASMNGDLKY
Sequence (Q9HBJ8 15-222 partner): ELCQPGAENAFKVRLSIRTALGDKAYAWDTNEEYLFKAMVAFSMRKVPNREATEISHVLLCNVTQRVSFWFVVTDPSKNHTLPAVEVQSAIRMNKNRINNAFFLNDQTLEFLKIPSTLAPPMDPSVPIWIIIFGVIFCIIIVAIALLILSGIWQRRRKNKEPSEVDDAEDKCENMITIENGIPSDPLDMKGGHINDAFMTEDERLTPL
Test: 13C6,15N-isoleucine uptake in CHO cells with doxycycline-inducible expression of human SLC6A19 and TMEM27, RapidFire mass spectrometry (Example B-2)
Format: cell-based
Conditions: read-out: SLC6A19_RapidFire Uptake Assay IC50
pIC50: −log10 of the molar value.
OBSERVED PROPERTY: pIC50

[1] O=C(NCc1cc2cc(C(F)(F)F)c(OCc3cscn3)cc2[nH]1)N1CCCC1 [Compound 479]
[2] O=C(NCc1cc2cc(Cl)c(OCc3ccon3)cc2[nH]1)C1(F)CC1 [Compound 232]
[3] CC(C)(C)C(=O)NCc1cc2cc(Cl)c(OCc3ccon3)cc2[nH]1 [Compound 493]
[4] CNC(=O)NCc1cc2ccc(OCc3ccon3)cc2[nH]1 [Compound 107]
List the 4 compounds shown above, ordered by increasing pIC50. Return the labels ranked in the requested order, please.
4, 3, 1, 2

[A] O=C(NCc1cc2cc(F)c(OCc3ccno3)cc2[nH]1)N1CCC1 [Compound 401]
[B] CC1(C(=O)NCc2cc3cc(Cl)c(OCc4c(F)ccnc4Cl)cc3[nH]2)CC1 [Compound 351]
Hi! Which is lower in terms of pIC50, the first one A or the second one B ? Which one? Tell me its label.
B
(B: 5.81, A: 6.27)

[A] CCC(=O)NCc1cc2cc(F)c(OCc3coc(C)n3)cc2[nH]1 [Compound 550]
[B] Cc1cc(COc2cc3[nH]c(CNC(=O)C4(C)CC4)cc3cc2F)on1 [Compound 12]
[C] Cc1cc(COc2cc3[nH]c(CNC(=O)C4(C)CC4)cc3cc2C(F)(F)F)no1 [Compound 58]
hey, can you rank those compounds up there by pIC50? biggest number first please Return the labels ranked in the requested order, please.
C, B, A
(C: 7.55, B: 6.84, A: 5.98)

====

Target: human SLC6A19 and TMEM27 (Homo sapiens, UniProt Q695T7)
Construct: expressed in transfected cells
Experiment: 13C6,15N-isoleucine uptake in CHO cells with doxycycline-inducible expression of human SLC6A19 and TMEM27, RapidFire mass spectrometry (Example B-2)
Format: cell-based
Details: read-out: SLC6A19_RapidFire Uptake Assay IC50
OBSERVED PROPERTY: IC50 (µM)

Worked set:
>>> numeric_result("CNC(=O)NCc1cc2cc(Cl)c(OCc3ccon3)cc2[nH]1 [Compound 110]")
0.464
>>> numeric_result("Cc1ncc(COc2cc3[nH]c(CNC(=O)C4(C)CC4)cc3cc2Cl)s1 [Compound 176]")
0.528
>>> numeric_result("Cn1ncc(COc2cc3[nH]c(CNC(=O)C4CC4)cc3cc2F)n1 [Compound 433]")
1.5

[P] O=C(NCc1cc2cc(F)c(OCc3ccon3)cc2[nH]1)C1CCC1 [Compound 431]
[Q] CC1(C(=O)NCc2cc3cc(Cl)c(OCc4ccsc4)cc3[nH]2)CC1 [Compound 25]
[R] Cc1cccc(COc2cc3[nH]c(CNC(=O)C4(C)CC4)cc3cc2Cl)n1 [Compound 42]
[S] O=C(NCc1cc2cc(F)c(CCc3ccon3)cc2[nH]1)N1CCC1 [Compound 602]
hey, can you rank those compounds up there by IC50? biggest number first please Return the labels ranked in the requested order, please.
R, S, P, Q

====

Molecular target: human SLC6A19 and TMEM27 (Homo sapiens, UniProt Q695T7)
Construct: expressed in transfected cells
Experiment: 13C6,15N-isoleucine uptake in CHO cells with doxycycline-inducible expression of human SLC6A19 and TMEM27, RapidFire mass spectrometry (Example B-2)
Format: cell-based
Conditions: read-out: SLC6A19_RapidFire Uptake Assay IC50
Procedure: Assay ready vials of CHO cells with doxycycline inducible expression of human SLC6A19 and TMEM27 were thawed, plated in T175 flasks containing DMEM/F12 media, 10% FBS, 1% Penicillin-Streptomycin, 1× UltraGlutamate, 1 mM Sodium Pyruvate, Sodium Bicarbonate (7.5 mL of 7.5% solution in 500 mL media final), 5 μg/mL Blasticidin, 150 μg/mL Hygromycin B Gold, and 500 μg/mL G418, and incubated (humidified, 37° C. with 5% CO2) for 48 hours. […] Resuspended cells were counted using a Vi-Cell. […]
pIC50: −log10 of the molar value.
OBSERVED PROPERTY: pIC50

Worked set:
>>> numeric_result("Cc1cc2cc(CNC(=O)N3CCC3)[nH]c2cc1OCc1cscn1")
6.53
>>> numeric_result("CC1(C(=O)NCc2cc3cc(F)c(NCc4cscn4)cc3[nH]2)CC1")
6.62
>>> numeric_result("CC1(C(=O)NCc2cc3ccc(OCc4cc(C(F)F)on4)cc3[nH]2)CC1")
6.04

[I] CC1(C(=O)NCc2cc3ccc(OCc4cnco4)cc3[nH]2)CC1
[II] CN(Cc1cn[nH]c1)C(=O)NCc1cc2ccc(OCc3ccon3)cc2[nH]1
Hi! Which is lower in terms of pIC50, the first one I or the second one II ? Which one? Tell me its label.
II
(II: 4.92, I: 6.04)
